molecular target: MS (malate synthase, GlcB, Rv1837c) (Mycobacterium tuberculosis, UniProt P9WK17)
Sequence (P9WK17 whole entry, looked up): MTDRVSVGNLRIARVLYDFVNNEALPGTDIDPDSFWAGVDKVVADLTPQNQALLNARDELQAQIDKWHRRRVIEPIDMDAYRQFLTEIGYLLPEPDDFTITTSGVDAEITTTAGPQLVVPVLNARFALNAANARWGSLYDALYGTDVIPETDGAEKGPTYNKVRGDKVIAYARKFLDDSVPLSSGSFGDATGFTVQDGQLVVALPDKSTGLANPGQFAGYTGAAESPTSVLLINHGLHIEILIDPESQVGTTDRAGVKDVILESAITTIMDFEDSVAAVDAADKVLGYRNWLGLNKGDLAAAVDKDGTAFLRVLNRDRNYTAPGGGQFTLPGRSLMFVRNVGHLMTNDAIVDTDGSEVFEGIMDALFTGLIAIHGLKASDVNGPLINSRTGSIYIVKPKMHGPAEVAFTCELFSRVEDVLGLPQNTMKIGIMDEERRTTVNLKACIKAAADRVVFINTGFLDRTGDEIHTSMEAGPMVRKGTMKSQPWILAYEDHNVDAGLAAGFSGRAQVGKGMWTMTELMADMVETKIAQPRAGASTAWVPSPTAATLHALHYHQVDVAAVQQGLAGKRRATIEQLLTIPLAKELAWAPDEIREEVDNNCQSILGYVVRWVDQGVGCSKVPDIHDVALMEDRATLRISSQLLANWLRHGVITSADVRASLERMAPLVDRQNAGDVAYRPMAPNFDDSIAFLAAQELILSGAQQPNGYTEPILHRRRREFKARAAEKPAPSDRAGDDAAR
experimental_readout: IC50

1. C=C(OP(=O)(O)O)C(=O)O [phosphoenolpyruvate]; 374 µM

Now turn to the next compound.
Which measured IC50 value corresponds to O=C(O)C(=O)CBr [bromopyruvate] ?
114 µM

These entries and their values trace back to paper PMC6849348.
